Reported values of EC50 (pM), A431 lysis with PBMC for individual entries
# assayedSystem: NKp30 on human NK cells (human) (UniProt O14931)
# Sequence (O14931 19-201): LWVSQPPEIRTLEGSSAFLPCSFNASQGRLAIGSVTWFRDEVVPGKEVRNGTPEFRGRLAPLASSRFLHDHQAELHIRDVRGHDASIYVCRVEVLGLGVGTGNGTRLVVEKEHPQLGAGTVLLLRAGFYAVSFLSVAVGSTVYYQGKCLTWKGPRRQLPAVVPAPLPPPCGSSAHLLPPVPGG
# experiment: cell-based or functional assay
Please give a number only; it is taken to be in pM.

ΔB7-H6_S2#10-SEED-PGLALA (bispecific antibody, part only; not given: SEED Fc chains and hu225 EGFR Fab, part only) chain, part: DLKVEMMAGGTQITPLNDNVTIFCNIFYSQPLNITLMGITWFWKSLTFDKEVKVFEFWGDHQEAFRPGAIVSPWGLKSGDASLRLPGIQLEEAGEYRCEVVVTPLKAQGTVQLEVVASPAS; 122
ΔB7-H6_S3#18-SEED-PGLALA (bispecific antibody, part only; not given: SEED Fc chains and hu225 Fab, part only) chain, part: DLKVEMMAGGTQITPLNDNVTIFCNIFYSQPLNITYMGITWFWKSLTFDKEVKVFEFWGDHQEAFRPGAIVSPWRLKSGDASLRLPGIQLEEAGEYRCEVVVTPYKAQGTVQLEVVASPAS; 19.8
ΔB7-H6_S2#11-SEED-PGLALA (bispecific antibody, part only; not given: SEED Fc chains and hu225 Fab, part only) chain, part: DLKVEMMAGGTQITPLNDNVTIFCNIFYSQPLNITTMGITWFWKSLTFDKEVKVFEFWQDHQEAFRPGAIVSPWRLKSGDASLRLPGIQLEEAGEYRCEVVVTPLKAQGTVQLEVVASPAS; 172
ΔB7-H6_S3#6-SEED-PGLALA (bispecific antibody, part only; not given: SEED Fc chains and hu225 Fab, part only) chain, part: DLKVEMMAGGTQITPLNDNVTIFCNIFYSQPLNITHMGITWFWKSLTFDKEVKVFEFWGDHQEAFRPGAIVSPWRLKSGDASLRLPGIQLEEAGEYRCEVVVTPYKAQGTVQLEVVASPAS; 40.8
ΔB7-H6_wt-SEED-PGLALA (bispecific antibody, part only; not given: SEED Fc chains and hu225 Fab, part only) chain, part: DLKVEMMAGGTQITPLNDNVTIFCNIFYSQPLNITSMGITWFWKSLTFDKEVKVFEFFGDHQEAFRPGAIVSPWRLKSGDASLRLPGIQLEEAGEYRCEVVVTPLKAQGTVQLEVVASPAS; 868
ΔB7-H6_S3#8-SEED-PGLALA (bispecific antibody, part only; not given: SEED Fc chains and hu225 EGFR Fab, part only) chain, part: DLKVEMMAGGTQITPLNDNVTIFCNIFYSQPLNITHMGITWFWKSLTFDKEVKVFEFWGDHQEAFRPGAIVSPWRLKSGDASLRLPGIQLEEAGEYRCEVIVTPLKAQGTVQLEVVASPAS; 43.7

Please turn your attention to the following entry.
Input: Quick one: EC50 (pM), A431 lysis with PBMC of ΔB7-H6_S3#15-SEED-PGLALA (bispecific antibody, part only; not given: SEED Fc chains and hu225 Fab, part only) chain, part: DLKVEMMAGGTQITPLNDNVTIFCNIFYSQPLNITIMGITWFWKSLTFDKEVKVFEFWGDHQEAFRPGAIVSPWRLKSGDASLRLPGIQLEEAGEYRCEVVVTPYKAQGTVQLEVVASPAS ?
Output: 8.7
